Reference source: patent US12077503B2

Examples of compounds with documented Plant response rating, Corn follow.
- Tested on: corn (Zea mays)
- assay: Test A postemergence
- Assay type: in vivo
- assay_conditions: 500 g ai/ha, postemergence; visual injury, 0 to 100 scale (0 no effect, 100 complete control), approx. 10 d
quantity_kind: Plant response rating, Corn

>>> print(df.to_string())
                                   compound                quantity_kind  endpoint_value
0  CN1CC(c2ccc(F)c(F)c2)C(C(=O)Nc2ccccc2C(F)(F)F)C1=O (stereo not shown)  Plant response rating, Corn              50
1  Cc1cc(C2CNC(=O)C2C(=O)Nc2cccc(F)c2F)cs1 (racemic)  Plant response rating, Corn              20
2  O=C1NCC(c2cccc(OC(F)(F)C(F)F)c2)C1C(=O)Nc1cccc(F)c1F (racemic)  Plant response rating, Corn              80
3  CN1CC(c2cc(F)cc(F)c2)C(C(=O)Nc2ccccc2F)C1=O (stereo not shown)  Plant response rating, Corn              70
